System: HOP-62 NSCLC
Assay: NCI tumour cell line growth inhibition, 48 h; in the data active = GI50 below about 0.43 µM; inactive = the rest
Entry note: the call must match one of 1.0 = active, 0.0 = inactive

>  <compound>
COc1ccccc1C#Cc1ccccc1C#Cc1ccc(OCCCCCCOc2ccccc2C#Cc2ccccc2C#Cc2ccccc2OC)cc1

>  <group_label>
0.0

$$$$
>  <compound>
COc1cc2nc(Nc3cccc(Cl)c3)nc(N)c2cc1OC

>  <group_label>
0.0

$$$$
>  <compound>
CC1=C(C#N)C23C(=O)N(c4ccccc4)C(=O)C2=C(O)C=CC3(O)N1Cc1ccc(Cl)cc1Cl (centres undefined)

>  <group_label>
0.0

$$$$
>  <compound>
CCN1CCN(CCNc2nccc(-c3c(-c4ccc(F)c(O)c4)nc4occn34)n2)S1(=O)=O

>  <group_label>
0.0

$$$$
>  <compound>
O=C1c2c(c(=O)[nH]c3ccccc23)[C@H](c2ccccc2)[C@@H]2CCCN12

>  <group_label>
0.0

$$$$

Test call for this compound, please: COc1ccc2c(c1)c(-c1nc(-c3cn(C)c4ccncc34)cs1)cn2C
0.0

Test call for this compound, please: Cc1c(Cn2c(C)nc3c(C(=O)O)cc(N4CCOCC4)cc32)cccc1C(F)(F)F
0.0

Test call for this compound, please: Cc1ccc2c(C(C[N+](=O)[O-])c3ccccc3)c(-c3ccccc3)[nH]c2c1 (centres undefined)
0.0

Test call for this compound, please: Fc1cccc(COc2ccc(Nc3ncnc4onc(-c5ccccc5)c34)cc2)c1
1.0
